Read-out: Monokine induced gamma interferon (MIG), CXCL9 (gene 4283)
Test: BSK_3C_MIG: BioMAP Diversity Plus: 3C Assay for Monokine induced gamma interferon (MIG) Biomarker Activity (AID 2283021)
Details: primary human endothelial cells (HUVEC); actives raise or lower the signal
The source made the active and inactive calls. Rule for the calls: active = hit-call score of the fitted dose curve at least 0.9, where 1 is the maximum; inactive = score below 0.9.
Select the matching outcome among active, inactive

Solved cases below.
> print(dat)
                                   molecule  class.label
1  C#CCOS(=O)OC1CCCCC1Oc1ccc(C(C)(C)C)cc1 (stereo not given)       active
2                     Cc1cc(Cl)ccc1OCC(=O)O     inactive
3  COC(=O)N(OC)c1ccccc1COc1ccn(-c2ccc(Cl)cc2)n1     inactive
4                CC1=C(C(=O)Nc2ccccc2)SCCO1     inactive
5  Cc1c(F)c(F)c(COC(=O)C2C(/C=C(\Cl)C(F)(F)F)C2(C)C)c(F)c1F (stereo not given)     inactive

What did this assay record as the result for COC(=O)c1ccccc1C(=O)OC ? inactive

What outcome does the record of this test show for CCCCC(CC)COC(=O)c1ccccc1C(=O)OCC(CC)CCCC (stereo not given) ? inactive

State the result this test recorded for CC(C)C1(C)N=C(c2nc3ccccc3cc2C(=O)O)NC1=O (stereo not given) . inactive

Hi, do you know how CC1COC(Cn2cncn2)(c2ccc(Oc3ccc(Cl)cc3)cc2Cl)O1 (stereo not given) came out in this test? active

What did this assay record as the result for C=CCC1=C(C)[C@@H](OC(=O)[C@@H]2[C@@H](C=C(C)C)C2(C)C)CC1=O ? inactive

Test call, this molecule: CNC(=S)S inactive

Per the records of this test, what outcome belongs to COc1nc(C)nc(NC(=O)NS(=O)(=O)c2ccccc2Cl)n1 ? inactive

Short answer needed: outcome of this test for O=C(O)COc1nc(Cl)c(Cl)cc1Cl ? inactive

Please state the recorded outcome for this molecule: O=C(Nc1ccccc1)Nc1ccnc(Cl)c1 inactive

What classification did CCc1nn(C)c(C(=O)NCc2ccc(C(C)(C)C)cc2)c1Cl end up with in this test? active

----------
Read-out: NAD(P)H dehydrogenase [quinone] 1 (NQO1), NQO1 (gene 1728)
Experiment: LTEA_HepaRG_NQO1: Life Technologies and Expression Analysis (LTEA) Assay for NAD(P)H dehydrogenase [quinone] 1 (NQO1) using HepaRG (AID 2283526)
Details: mRNA level, 48 h; actives raise or lower the signal
The source made the active and inactive calls. Rule for the calls: active = hit-call score of the fitted dose curve at least 0.9, where 1 is the maximum; inactive = score below 0.9.
Reply using exactly one outcome from T = active, F = inactive

> print(dat)
                                 compound  class.label
1  COc1ccc(C(c2ccc(OC)cc2)C(Cl)(Cl)Cl)cc1            F

Hi team, can someone confirm the assay call for CCc1nn(C)c(C(=O)NCc2ccc(C(C)(C)C)cc2)c1Cl ? T

// outcome(item) with item = O=C(O)c1nc(Cl)ccc1Cl F

Status in this test for COP(=S)(OC)Oc1nc(Cl)c(Cl)cc1Cl ? F

What was the test verdict on O=C(Nc1ccccc1)Nc1ccnc(Cl)c1 ? T

Hey, what did the test say about COC(=O)C(C)Oc1ccc(Oc2ccc(Cl)cc2Cl)cc1 (stereo not given) ? F

Call for entry CCCCOC(=O)c1ccccc1C(=O)OCCCC : F

Hi, do you know how COC(=O)c1ccccc1C(=O)OC came out in this test? F

How did this test come out for CC(C)(C)c1ccc(CSc2cnn(C(C)(C)C)c(=O)c2Cl)cc1 ? F

Test call for this compound, please: COc1cnc(OC)n2nc(NS(=O)(=O)c3c(OCC(F)F)cccc3C(F)(F)F)nc12 F

GET /call?item= N#Cc1nn(-c2c(Cl)cc(C(F)(F)F)cc2Cl)c(N)c1S(=O)C(F)(F)F (stereo not given) returns the recorded outcome of this test. T

Hey, what did the test say about CCCC1COC(Cn2cncn2)(c2ccc(Cl)cc2Cl)O1 (stereo not given) ? T

----------
Experiment: BSK_hDFCGF_Proliferation: Cell Proliferation Assessment in the BioMAP Diversity Plus: hDFCGF Assay (AID 2283059);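 note: curves fitted for both rise and fall of signal versus DMSO baseline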
Conditions: primary human foreskin fibroblasts
Calls of active or inactive are those of the source. Rule for the calls: active = hit-call score of the fitted dose curve at least 0.9, where 1 is the maximum; inactive = score below 0.9.
property: AC50

Example molecules with recorded AC50:
> print(dat)
                                   molecule  reported.measurement
1                     Cc1cc(Cl)ccc1OCC(=O)O              inactive
2                        Oc1ccccc1-c1ccccc1              inactive
3              CON(C)C(=O)Nc1ccc(Cl)c(Cl)c1              inactive
4  Cc1c(F)c(F)c(COC(=O)C2C(/C=C(\Cl)C(F)(F)F)C2(C)C)c(F)c1F (stereo unspecified)      10.8 µM (active)
5                      CCNc1nc(Cl)nc(NCC)n1              inactive

// batch mode: one AC50 value per listed entry
1. CCCCNC(=O)n1c(NC(=O)OC)nc2ccccc21
2. CS/C(C)=N/OC(=O)N(C)SN(C)C(=O)O/N=C(\C)SC

["15 µM (active)", "3.73 µM (active)"]

----------
Experiment: BSK_SAg_PBMCCytotoxicity: PBMC Cytotoxicity Assessment in the BioMAP Diversity Plus: SAg Assay (AID 2283093);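 note: PBMC viability measured as Alamar Blue reduction fluorescence at 546/580 nm; fitted both ways against DMSO so a hit may be loss or gain of signal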;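 for AC50: PBMC superantigen activated with SEB plus TSST-1 one hour after compound addition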
Conditions: primary human HUVEC with PBMC
Active and inactive are the calls of the source. How the source made its calls: active means hit-call score of the fitted dose curve at least 0.9, where 1 is the maximum; inactive means score below 0.9.
property: AC50

Known AC50 results, listed for orientation:
> print(dat)
                                    compound  reported.measurement
 1                                  CNC(=S)S      14.7 µM (active)
 2      CCOP(=S)(OCC)SCn1c(=O)oc2cc(Cl)ccc21              inactive
 3  CCCCC(CC)COC(=O)c1ccccc1C(=O)OCC(CC)CCCC (stereo not drawn)              inactive
 4                    N#Cc1cc(Br)c(O)c(Br)c1      14.4 µM (active)
 5              CON(C)C(=O)Nc1ccc(Cl)c(Cl)c1              inactive
 6  COC(=O)C(C)Oc1ccc(Oc2ccc(Cl)cc2Cl)cc1 (stereo not drawn)              inactive
 7  CCc1nn(C)c(C(=O)NCc2ccc(C(C)(C)C)cc2)c1Cl      34.8 µM (active)
 8  CCOC(=O)C(Cl)Cc1cc(-n2nc(C)n(C(F)F)c2=O)c(F)cc1Cl (stereo not drawn)              inactive
 9  N#Cc1nn(-c2c(Cl)cc(C(F)(F)F)cc2Cl)c(N)c1S(=O)C(F)(F)F (stereo not drawn)      5.04 µM (active)
10            COP(=S)(OC)Oc1nc(Cl)c(Cl)cc1Cl              inactive

Each compound below has a recorded value; state its AC50.
1. COC(=O)N(OC)c1ccccc1COc1ccn(-c2ccc(Cl)cc2)n1
2. CC(C)(C)c1ccc(CSc2cnn(C(C)(C)C)c(=O)c2Cl)cc1

1: 0.222 µM (active); 2: 0.0975 µM (active)

Field: AC50. Fill in for each record below.
1. CS/C(C)=N/OC(=O)N(C)SN(C)C(=O)O/N=C(\C)SC
2. CNC(=O)ON=CC(C)(C)SC
3. O=C(Nc1ccccc1)Nc1ccnc(Cl)c1
4. CCON=C(CC)C1=C(O)CC(c2c(C)cc(C)cc2C)CC1=O (stereo not drawn)
5. Fc1ccc(Oc2ccnc3cc(Cl)cc(Cl)c23)cc1

["8.27 µM (active)", "inactive", "inactive", "inactive", "31.4 µM (active)"]

For the compound CCCCNC(=O)n1c(NC(=O)OC)nc2ccccc21 , what AC50 is on record? inactive

----------
Target: Bile acid receptor (Homo sapiens) (UniProt Q96RI1)
Sequence (Q96RI1 whole entry, looked up): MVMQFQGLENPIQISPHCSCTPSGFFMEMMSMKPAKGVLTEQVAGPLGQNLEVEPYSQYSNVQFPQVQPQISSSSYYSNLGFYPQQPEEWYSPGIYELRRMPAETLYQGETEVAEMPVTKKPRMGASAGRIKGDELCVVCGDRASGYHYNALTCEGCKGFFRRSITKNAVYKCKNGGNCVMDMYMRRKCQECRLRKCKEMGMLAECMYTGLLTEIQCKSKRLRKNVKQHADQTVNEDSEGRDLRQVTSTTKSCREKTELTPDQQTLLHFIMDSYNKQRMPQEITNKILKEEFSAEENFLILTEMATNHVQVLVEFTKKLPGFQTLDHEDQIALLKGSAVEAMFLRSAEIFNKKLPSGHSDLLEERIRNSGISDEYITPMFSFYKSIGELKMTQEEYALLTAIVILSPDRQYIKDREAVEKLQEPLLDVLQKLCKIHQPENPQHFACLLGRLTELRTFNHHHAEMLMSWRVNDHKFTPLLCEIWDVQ
Assay: OT_FXR_FXRSRC1_0480: Odyssey Thera (OT) 8-hour HEK293T Protein-Complementation Assay for Farnesoid X receptor/SRC-1 Co-activator (AID 2283383)
Inconclusive results are not listed. The source made the active and inactive calls. How the source made its calls: active means hit-call score of the fitted dose curve at least 0.9, where 1 is the maximum; inconclusive means response in the unintended direction; inactive means score below 0.9.
Parameter call: string, one of active, inactive

Record excerpt, results attached:
> print(dat)
                                   compound  class.label
1  CCOC(=O)C(Cl)Cc1cc(-n2nc(C)n(C(F)F)c2=O)c(F)cc1Cl (stereo not given)       active
2  CCON=C(CC)C1=C(O)CC(c2c(C)cc(C)cc2C)CC1=O (stereo not given)     inactive
3  CCc1nn(C)c(C(=O)NCc2ccc(C(C)(C)C)cc2)c1Cl       active
4  COC(=O)C(C)Oc1ccc(Oc2ccc(Cl)cc2Cl)cc1 (stereo not given)       active

Moving on to another compound below.
For CN(C)C(=S)SSC(=S)N(C)C , which call appears in the assay record? inactive
